# method description: Apparent permeability from basolateral to apical side in dog MDCK-MDR1 cells
# Assay type: ADME, cell-based, Canis lupus familiaris
property: Papp B→A

Q. Quick check: Papp B→A of Cc1cccc(N(C)c2nccc(-c3cnn4ncccc34)n2)c1 ?
A. 20.1 ×10⁻⁶ cm/s
